Literature IC50 values, system: TGFBR2 (Homo sapiens).

Worked examples, 3 compounds total:
- COMPOUND: "CN(CCN)c1ccc(-c2cnc(N)c(C(=O)Nc3cnccc3N3CCOCC3)n2)cc1"
  IC50: "< 50 nM"
- COMPOUND: "Cc1nc(-c2nc(Nc3ccncc3F)c3nc[nH]c3n2)ccc1F"
  IC50: "2800 nM"
- COMPOUND: "CC(C)(C)OC(=O)NCC1CCc2cc(-c3cnc(N)c(C(=O)Nc4cnccc4N4CCOCC4)n3)ccc2O1 (centres unmarked)"
  IC50: "< 50 nM"

Input: Provide the documented IC50 with TGFBR2 (Homo sapiens) as the system for CC(C)(C)OC(=O)NC1CNc2ccc(-c3cnc(N)c(C(=O)Nc4cnccc4N4CCOCC4)n3)cc2C1 (centres unmarked)
Output: 50 to 100 nM

Input: API: value(readout=IC50, system=TGFBR2 (Homo sapiens)) for record Nc1ncc(-c2c(Cl)cccc2Cl)nc1C(=O)Nc1cnccc1N1CCOCC1
Output: > 1000 nM

Input: Form field: IC50 recorded for Fc1ccc(-c2ncccc2-c2ccc3nccn3c2)nc1C(F)F with TGFBR2 (Homo sapiens) (enter value)
Output: > 15000 nM

Input: Lab note: need IC50 with TGFBR2 (Homo sapiens) for entry CC(C)(C)OC(=O)N1CCN(C(=O)c2ccc(-c3cnc(N)c(C(=O)Nc4cnccc4N4CCOCC4)n3)cc2)CC1 , please look it up.
Output: 100 to 1000 nM

Input: # query: IC50 | item CC(CN)Oc1ccc(-c2cnc(N)c(C(=O)Nc3cnccc3N3CCCOCC3)n2)cc1 (centres unmarked) | system: TGFBR2 (Homo sapiens)
Output: 50 to 100 nM

Input: # query: IC50 | item [N-]=[N+]=NCC1COCCN1c1ccncc1NC(=O)c1nc(-c2ccc(CCNC(=O)OCc3ccccc3)cc2)cnc1N (centres unmarked) | system: TGFBR2 (Homo sapiens)
Output: > 1000 nM

Input: Tell me reported IC50 for Nc1ncc(-c2ccc(CCCNC(=O)OCc3ccccc3)cc2)nc1C(=O)Nc1cnccc1N1CCOCC1 , tested with TGFBR2 (Homo sapiens).
Output: < 50 nM

Input: Short answer please: IC50, TGFBR2 (Homo sapiens), entry Nc1ncc(-c2ccc3c(c2)CCNC3)nc1C(=O)Nc1cnccc1N1CCOCC1
Output: 50 to 100 nM

Input: Field: IC50 (TGFBR2 (Homo sapiens)). Entry: Cc1cccc(-c2ncccc2-c2ccn3ncc(C(=O)NC4COC4)c3n2)n1
Output: > 15000 nM

Input: # returns recorded IC50 (system: TGFBR2 (Homo sapiens)) for NCCc1ccc(-c2cnc(N)c(C(=O)Nc3cnccc3NCC(N)=O)n2)cc1
Output: > 1000 nM

Input: Requested read-out IC50, target or system TGFBR2 (Homo sapiens), entry Nc1ncc(Cc2ccccc2)nc1C(=O)Nc1cnccc1N1CCOCC1
Output: > 1000 nM

Input: Quick check: IC50 on TGFBR2 (Homo sapiens), item CN1CCN(c2ccc(Nc3ncc4cc(C#N)c(=O)n(C5CCCC5)c4n3)cc2)CC1 ?
Output: 62.3 nM

Input: // fetch TGFBR2 (Homo sapiens) IC50 for NC(=O)c1cnc2ccc(-c3cccnc3-c3cc(F)ccn3)nn12
Output: > 15000 nM

Input: Param readout= IC50; system= TGFBR2 (Homo sapiens); entry= CC(C)(O)c1cccc(-c2ncccc2-c2ccc3ncc(C#N)n3c2)n1 ; returns value.
Output: > 15000 nM
